Below are IC50 measurements against Platelet-derived growth factor receptor beta (Homo sapiens) drawn from the literature.

// known answers, use as guide
>  <Smiles Structure>
CCn1cc2ncc(N[C@@H](C)c3cccc(NC(=O)c4ccc(CN5CC(F)C5)c(Cl)c4)c3)nc2n1

>  <IC50>
< 300 nM

$$$$
>  <Smiles Structure>
CCn1cc2ncc(N[C@@H](C)c3cc(NC(=O)c4ccc(OC(F)F)nc4)ccc3C)nc2n1

>  <IC50>
< 300 nM

$$$$
>  <Smiles Structure>
Cc1cc2nc(Nc3ccc(S(=O)(=O)NCCN4CCCC4)cc3)nnc2cc1-c1c(C)cccc1C

>  <IC50>
48.1 nM

$$$$
>  <Smiles Structure>
Cc1ccoc1C(=O)Nc1cccc(Oc2ccnc3cc(C(=O)OCCO)sc23)c1

>  <IC50>
212 nM

$$$$
>  <Smiles Structure>
Cc1ccc(C(=O)N[C@H]2CCCC[C@@H]2O)cc1NC(=O)c1cncc(-c2cc(F)cc(F)c2)c1

>  <IC50>
47 nM

$$$$
>  <Smiles Structure>
CCOc1cc(C(=O)Nc2cccc(Oc3ccnc(C(=O)NC)c3)c2)cc(OCC)c1OCC

>  <IC50>
≤ 10000 nM

$$$$
>  <Smiles Structure>
CCn1cc2ncc(N[C@@H](C)c3cccc(NC(=O)c4ccc(CN5CC(F)C5)c(C)c4)c3)nc2n1

>  <IC50>
< 300 nM

$$$$
>  <Smiles Structure>
CCOc1cc(OCC)cc(C(=O)Nc2cccc(Oc3cc(-c4nc(C(F)(F)F)c[nH]4)ncn3)c2)c1

>  <IC50>
≤ 10000 nM

$$$$
>  <Smiles Structure>
CNC(=O)c1cc(Oc2ccc(N(C)C(=O)Nc3cc(-n4cnc(C)c4)cc(C(F)(F)F)c3)cc2)ccn1

>  <IC50>
≤ 10000 nM

$$$$
>  <Smiles Structure>
O=C(Nc1ccccc1)Nc1ccc(C#Cc2ccc3nccn3n2)cc1

>  <IC50>
185 nM

$$$$

Provide IC50, tested on Platelet-derived growth factor receptor beta (Homo sapiens), for Cc1ccc(F)c(NC(=O)Nc2ccccc2C#Cc2ccc3nccn3n2)c1 .
> 10000 nM
